log fold change Tl+ flux values for the compounds below.
test system: R275C; test: modulators of BK channel variants, profiling panel, selectivity assay, cell-based, U2OS BacMam, thallium flux, beta subunits (AID 1259406); settings: at 30 µM;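 note: initial slope of Thallos dye fluorescence rise after thallium is added; log ratio against the mean of 0.3% DMSO vehicle wells on the same plate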

Molecule Smiles	log fold change Tl+ flux
COC(=O)c1sc(-c2ccc(Cl)cc2)cc1NC(=O)c1ccc2nsnc2c1	0.0185
CCOC(=O)Cn1c(-c2c(Cl)cccc2Cl)noc1=O	0.0179
CCc1ccc(C(=O)Nc2cccc(S(N)(=O)=O)c2)cc1	-0.00467
CO[C@H]1C=CO[C@@]2(C)Oc3c(C)c(O)c4c(O)c(c(C=NN5CCN(C6CCCC6)CC5)c(O)c4c3C2=O)NC(=O)C(C)=CC=C[C@H](C)[C@H](O)[C@@H](C)[C@@H](O)[C@@H](C)[C@H](OC(C)=O)[C@@H]1C	-0.0706
O=C(CN1c2ccccc2Sc2ccccc21)NN=Cc1ccco1	-0.00994
